target: ATR kinase (Homo sapiens); construct: endogenous in cells; host or cells: HT29 cells (ECACC #85061109); test: Assay b): ATR cellular potency (pChk1 Ser345 in HT29 cells after 4NQO); format: cell-based; details: HT29 cells, 4NQO, pChk1 Ser345; Table 2; read-out: Assay b) ATR Cell IC50
Sequence (Q13535 whole entry): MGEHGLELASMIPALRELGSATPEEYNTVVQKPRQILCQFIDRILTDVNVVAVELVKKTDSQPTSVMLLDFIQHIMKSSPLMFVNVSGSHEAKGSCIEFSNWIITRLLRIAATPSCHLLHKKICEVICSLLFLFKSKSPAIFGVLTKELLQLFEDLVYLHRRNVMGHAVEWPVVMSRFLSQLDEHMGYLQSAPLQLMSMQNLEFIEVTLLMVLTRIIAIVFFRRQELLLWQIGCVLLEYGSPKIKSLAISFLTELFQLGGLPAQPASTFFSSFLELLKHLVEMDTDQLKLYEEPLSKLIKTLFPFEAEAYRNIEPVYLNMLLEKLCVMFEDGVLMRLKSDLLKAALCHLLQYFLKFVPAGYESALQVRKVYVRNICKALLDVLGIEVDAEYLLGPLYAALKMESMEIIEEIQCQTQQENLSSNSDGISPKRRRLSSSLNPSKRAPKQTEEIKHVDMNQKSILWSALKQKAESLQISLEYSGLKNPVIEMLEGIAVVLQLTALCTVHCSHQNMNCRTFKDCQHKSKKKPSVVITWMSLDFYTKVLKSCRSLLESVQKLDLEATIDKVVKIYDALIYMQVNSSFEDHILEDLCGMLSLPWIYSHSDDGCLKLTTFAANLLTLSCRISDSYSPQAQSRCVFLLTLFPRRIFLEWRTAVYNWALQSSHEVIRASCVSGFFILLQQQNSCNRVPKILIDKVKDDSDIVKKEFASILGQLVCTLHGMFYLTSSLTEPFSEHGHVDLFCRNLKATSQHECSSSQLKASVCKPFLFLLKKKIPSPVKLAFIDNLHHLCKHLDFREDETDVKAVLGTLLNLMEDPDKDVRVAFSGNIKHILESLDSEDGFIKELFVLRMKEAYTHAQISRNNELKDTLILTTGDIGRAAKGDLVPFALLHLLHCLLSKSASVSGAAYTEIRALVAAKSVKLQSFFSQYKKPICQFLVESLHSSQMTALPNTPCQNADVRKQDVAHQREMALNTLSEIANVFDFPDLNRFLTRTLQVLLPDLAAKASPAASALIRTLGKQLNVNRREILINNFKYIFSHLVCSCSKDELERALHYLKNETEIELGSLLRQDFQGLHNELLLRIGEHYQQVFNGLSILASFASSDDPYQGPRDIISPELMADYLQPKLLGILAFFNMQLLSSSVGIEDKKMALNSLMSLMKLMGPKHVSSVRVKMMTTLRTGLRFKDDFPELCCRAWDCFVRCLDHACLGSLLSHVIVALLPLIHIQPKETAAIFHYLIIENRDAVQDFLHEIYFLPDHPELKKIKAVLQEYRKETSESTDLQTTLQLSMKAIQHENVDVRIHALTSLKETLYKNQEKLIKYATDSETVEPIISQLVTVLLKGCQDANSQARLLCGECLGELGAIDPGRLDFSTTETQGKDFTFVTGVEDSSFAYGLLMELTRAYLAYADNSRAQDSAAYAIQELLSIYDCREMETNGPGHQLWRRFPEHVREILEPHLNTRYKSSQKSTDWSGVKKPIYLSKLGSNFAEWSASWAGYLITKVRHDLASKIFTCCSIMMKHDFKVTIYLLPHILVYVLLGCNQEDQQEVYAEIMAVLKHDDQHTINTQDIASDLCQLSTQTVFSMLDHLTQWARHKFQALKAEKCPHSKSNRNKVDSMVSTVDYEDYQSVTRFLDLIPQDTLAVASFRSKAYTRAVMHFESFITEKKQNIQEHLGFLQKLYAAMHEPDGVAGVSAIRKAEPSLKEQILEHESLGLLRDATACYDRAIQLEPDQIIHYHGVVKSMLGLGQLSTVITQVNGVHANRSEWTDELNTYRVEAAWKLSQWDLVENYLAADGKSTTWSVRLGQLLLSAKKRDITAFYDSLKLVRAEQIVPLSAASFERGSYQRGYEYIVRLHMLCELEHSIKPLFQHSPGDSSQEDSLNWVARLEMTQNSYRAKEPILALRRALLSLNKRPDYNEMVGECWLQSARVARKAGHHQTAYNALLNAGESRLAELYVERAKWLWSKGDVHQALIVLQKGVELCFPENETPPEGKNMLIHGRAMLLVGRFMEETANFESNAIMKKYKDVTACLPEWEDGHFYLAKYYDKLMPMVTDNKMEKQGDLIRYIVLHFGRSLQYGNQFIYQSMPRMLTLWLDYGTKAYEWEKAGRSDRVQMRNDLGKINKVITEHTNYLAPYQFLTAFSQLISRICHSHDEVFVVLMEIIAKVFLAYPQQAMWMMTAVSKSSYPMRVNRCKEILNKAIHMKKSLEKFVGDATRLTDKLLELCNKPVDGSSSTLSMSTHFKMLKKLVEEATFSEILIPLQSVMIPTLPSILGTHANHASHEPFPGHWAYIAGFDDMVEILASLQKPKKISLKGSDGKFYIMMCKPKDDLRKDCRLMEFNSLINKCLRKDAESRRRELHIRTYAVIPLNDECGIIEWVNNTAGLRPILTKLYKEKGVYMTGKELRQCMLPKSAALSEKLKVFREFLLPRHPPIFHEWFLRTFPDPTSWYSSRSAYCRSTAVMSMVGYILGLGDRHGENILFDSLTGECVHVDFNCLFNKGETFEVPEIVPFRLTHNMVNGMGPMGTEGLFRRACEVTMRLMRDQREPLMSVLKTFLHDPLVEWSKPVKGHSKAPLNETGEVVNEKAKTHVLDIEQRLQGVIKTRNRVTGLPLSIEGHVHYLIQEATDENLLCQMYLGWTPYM
Sequence (Q8WXE1 whole entry partner): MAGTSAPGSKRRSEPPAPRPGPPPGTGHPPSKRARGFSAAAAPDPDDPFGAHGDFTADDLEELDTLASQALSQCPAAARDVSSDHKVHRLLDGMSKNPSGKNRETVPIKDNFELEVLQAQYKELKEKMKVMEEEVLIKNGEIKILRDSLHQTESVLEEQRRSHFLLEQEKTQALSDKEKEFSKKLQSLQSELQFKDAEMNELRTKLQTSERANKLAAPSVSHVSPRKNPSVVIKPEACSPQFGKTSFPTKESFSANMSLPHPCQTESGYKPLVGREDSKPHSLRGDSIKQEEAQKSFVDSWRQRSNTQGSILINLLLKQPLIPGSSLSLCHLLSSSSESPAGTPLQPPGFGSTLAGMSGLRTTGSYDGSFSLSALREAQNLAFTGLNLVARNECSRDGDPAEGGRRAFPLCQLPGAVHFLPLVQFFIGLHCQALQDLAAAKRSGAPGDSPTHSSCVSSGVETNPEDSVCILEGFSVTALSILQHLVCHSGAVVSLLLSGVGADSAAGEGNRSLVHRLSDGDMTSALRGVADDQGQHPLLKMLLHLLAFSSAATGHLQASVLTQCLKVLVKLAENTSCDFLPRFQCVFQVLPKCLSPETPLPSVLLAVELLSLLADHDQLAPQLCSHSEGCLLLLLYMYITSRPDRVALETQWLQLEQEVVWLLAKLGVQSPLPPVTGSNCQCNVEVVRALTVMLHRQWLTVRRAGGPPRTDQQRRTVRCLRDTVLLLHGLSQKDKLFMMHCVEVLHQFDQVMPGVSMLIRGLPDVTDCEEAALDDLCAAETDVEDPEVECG
pIC50: −log10 of the molar value.
Below, each entry is listed alongside its reported pIC50.
Reported Metric: pIC50

INSERT INTO assay_data (compound, study_target, endpoint_result) VALUES
  ('CN(C)CCCOc1ccc(-c2cc3c(cc2F)ncc2c3n(C3CCOCC3)c(=O)n2C)cc1', 'ATR kinase (Homo sapiens)', 4.70),
  ('CO[C@H]1C[C@@H](n2c(=O)n(C)c3cnc4ccc(-c5ccc(OCCN6CCCC6)cc5)cc4c32)C1', 'ATR kinase (Homo sapiens)', '< 4.52'),
  ('CN(C)CCCOc1ccc(-c2cc3c(cc2F)ncc2c3n([C@H]3CCCOC3)c(=O)n2C)cc1', 'ATR kinase (Homo sapiens)', '< 4.52'),
  ('CO[C@H]1CC[C@H](n2c(=O)n(C)c3cnc4ccc(-c5ccc(OCCCN(C)C)cc5)cc4c32)CC1', 'ATR kinase (Homo sapiens)', '< 4.52'),
  ('CO[C@H]1C[C@H](n2c(=O)n(C)c3cnc4ccc(-c5ccc(OCCCN6CCCC6)cc5)cc4c32)C1', 'ATR kinase (Homo sapiens)', '< 4.52'),
  ('CO[C@H]1CCC[C@H](n2c(=O)n(C)c3cnc4ccc(-c5ccc(OCCCN6CCCC6)cc5)cc4c32)C1 (single isomer, unassigned) [Example 30]', 'ATR kinase (Homo sapiens)', 4.81),
  ('CC(C)n1c(=O)n(C)c2cnc3ccc(-c4ccc(OCCCN5CCC5)cc4)cc3c21', 'ATR kinase (Homo sapiens)', '< 4.52');
